biological target: General amino acid permease AGP1 (Saccharomyces cerevisiae (strain ATCC 204508 / S288c)); assay: compound effects on AGP1 permease GFP reporter – TOR pathway, S. cerevisiae, flow cytometry, KU SAR set 2, multiplex, dose response (AID 504458); details: flow cytometry fluorescence, 3 h
Activity calls are given as the source filed them. The rule behind the calls is not given here.
In this exercise, the only acceptable responses are active, inactive

Use these answered entries as a reference point.
>>> df
                            smiles_notation  qualitative_label
0                 CNc1nc(N)cc(Nc2ccccc2F)n1           inactive
1  CCNc1nc(N)c([N+](=O)[O-])c(Nc2cccc(Cl)c2)n1             active

Short answer needed: outcome of this test for CNc1nc(N)cc(Oc2cccc(Cl)c2)n1 ?
inactive

What was the test verdict on CCNc1nc(NC2CCCCC2)c([N+](=O)[O-])c(N2CCOCC2)n1 ?
inactive

Hey, what did the test say about CNc1nc(N)cc(Nc2cccc(Cl)c2)n1 ?
inactive

Assay outcome for CCOC(=O)c1c(N)nc(NC)nc1Nc1cccc(F)c1 : what was it?
inactive

Outcome? CNc1nc(N)c([N+](=O)[O-])c(Nc2ccccc2Br)n1
inactive
